- measured.on: Matrix-associated proTGFβ1 (hLTBP1-proTGFβ1 and hLTBP3-proTGFβ1)
- experiment.notes: MSD-SET, hIgG4
assay.metric: ECM AVRG (average KD) (nM)
Answer in nM, number only, no unit symbol.

Below, each entry is followed by its recorded ECM AVRG (average KD) result.
Ab30 (antibody, V domains shown) VH: EVQLVESGGGLVQPGGSLRLSCAASGFTFSSFSMDWVRQAPGKGLEWVSYISPDASTIYYADSVKGRFTISRDNAKNSLYLQMNSLRAEDTAVYYCARGTLDYGDMLDPWGQGTLVTVSS VL: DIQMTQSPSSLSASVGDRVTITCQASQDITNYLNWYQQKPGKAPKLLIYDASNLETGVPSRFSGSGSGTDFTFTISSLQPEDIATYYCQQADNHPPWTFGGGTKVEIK | 0.029
Ab32 (antibody, V domains shown) VH: EVQLVESGGGLVQPGGSLRLSCAASGFTFSSFSMNWVRQAPGKGLEWVSYISPSADTIYYADSVKGRFTISRDNAKNTLYLQMNSLRAEDTAVYYCARGVWDMGDMLDPWGQGTLVTVSS VL: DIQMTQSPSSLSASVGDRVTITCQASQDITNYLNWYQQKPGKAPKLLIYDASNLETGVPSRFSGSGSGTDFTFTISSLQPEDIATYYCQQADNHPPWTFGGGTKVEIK | 0.032

// query Sample Ab33 (antibody, V domains shown) VH: EVQLVESGGGLVQPGGSLRLSCAASGFTFSSFSMNWVRQAPGKGLEWVSYISPSADTIYYADSVKGRFTISRDNAKNTLYLQMNSLRAEDTAVYYCAHGVLDYGDMLDPWGQGTLVTVSS VL: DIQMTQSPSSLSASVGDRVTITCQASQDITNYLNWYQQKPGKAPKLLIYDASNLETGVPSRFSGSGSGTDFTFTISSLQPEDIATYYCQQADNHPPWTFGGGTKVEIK — what was its ECM AVRG (average KD)?
// result 0.009

This collection of values is drawn from patent US20210122814A1.
